measured_on: recombinant human Myt1 (full length PKMYT1) (Homo sapiens (Human))
Sequence (Q99640 whole entry): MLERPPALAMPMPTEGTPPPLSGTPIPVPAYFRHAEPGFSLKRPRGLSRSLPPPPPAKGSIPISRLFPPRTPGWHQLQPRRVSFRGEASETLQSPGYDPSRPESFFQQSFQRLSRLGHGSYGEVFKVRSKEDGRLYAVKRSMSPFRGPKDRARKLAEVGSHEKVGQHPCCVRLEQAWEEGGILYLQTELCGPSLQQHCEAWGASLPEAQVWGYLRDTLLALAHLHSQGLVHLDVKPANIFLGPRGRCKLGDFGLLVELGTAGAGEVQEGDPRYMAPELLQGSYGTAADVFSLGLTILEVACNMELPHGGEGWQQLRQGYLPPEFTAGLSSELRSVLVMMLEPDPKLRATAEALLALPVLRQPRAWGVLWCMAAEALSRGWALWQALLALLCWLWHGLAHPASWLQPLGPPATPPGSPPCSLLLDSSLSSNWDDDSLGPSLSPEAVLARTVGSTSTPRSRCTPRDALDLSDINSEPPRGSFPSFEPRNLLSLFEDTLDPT
assay_name: Recombinant human Myt1 kinase assay (ADP-Glo)
assay_setup: 10 μM ATP
assay_readout: IC50 (nM)

| molecule | measured_on | assay_readout | relation_operator | measured |
| --- | --- | --- | --- | --- |
| Cc1ccc2[nH]ncc2c1-c1nc(-c2cccc3cn[nH]c23)nc(C(N)=O)c1N | recombinant human Myt1 (full length PKMYT1) (Homo sapiens (Human)) | IC50 | = | 6 |
| Cc1ccc2[nH]ncc2c1-c1nc(-c2ccnc(N3CCN(C)CC3)c2)nc(C(N)=O)c1N | recombinant human Myt1 (full length PKMYT1) (Homo sapiens (Human)) | IC50 | = | 30 |
| Cc1ccc2[nH]ncc2c1-c1cc(-c2cccnn2)nc(C(N)=O)c1N | recombinant human Myt1 (full length PKMYT1) (Homo sapiens (Human)) | IC50 | = | 42 |
| Cc1ccc2[nH]ncc2c1-c1nc(-c2cccc(C#N)c2)nc(C(N)=O)c1N | recombinant human Myt1 (full length PKMYT1) (Homo sapiens (Human)) | IC50 | = | 22 |
| Cc1ccc(O)cc1-c1nc(-c2cccc(F)n2)nc(C(N)=O)c1N | recombinant human Myt1 (full length PKMYT1) (Homo sapiens (Human)) | IC50 | = | 25 |
| Cc1ccc2[nH]ncc2c1-c1cc(-c2ccnc(OCCc3ccncn3)n2)nc(C(N)=O)c1N | recombinant human Myt1 (full length PKMYT1) (Homo sapiens (Human)) | IC50 | > | 2000 |
| Cc1ccc(O)cc1-c1nc(C(N)=O)c(N)c(-c2cc(O)ccc2C)n1 | recombinant human Myt1 (full length PKMYT1) (Homo sapiens (Human)) | IC50 | = | 246 |
| Cc1ccc(O)c(C)c1-c1cc(-c2cncs2)nc(C(N)=O)c1N [Compound 90] | recombinant human Myt1 (full length PKMYT1) (Homo sapiens (Human)) | IC50 | = | 3 |
